The values you see were collected from patent US5376679A.

Tested on: Fusarium culmorum
Assay: Activity against seedling wheat blight, soil drench (Fs)
Format: in vivo
Parameters: scale not given here
Details: 10 kg/ha, 21 days, activity grade 1 or 2, not defined
Procedure: (d) Activity Against Seedling Wheat Blight (Fusarium culmorum; Fs) The test is an anti-sporulant one using a soil drench. Surface sterilised wheat seeds (var Waggoner) are inoculated by soaking in an aqueous suspension containing 7×10^5 spores/ml (60 mg seed per 80 ml suspension) at 22° C. for 6 hours. The seeds are then sown in pots (5 per pot) in sand at a depth of 1 cm. […]
So I've got a bunch of compounds here, and I need their Fs: activity against seedling wheat blight values.
Lab note: jot the number down without any unit.

*Q* Tell me its Fs: activity against seedling wheat blight given CC1Oc2c(cc(Cl)cc2[N+]([O-])=NC#N)C1C (stereo not drawn) [Example 5] as the entry.
*A* 2

*Q* Tell us which Fs: activity against seedling wheat blight value is on record for CC1Cc2cc(Cl)cc([N+]([O-])=NC#N)c2O1 (stereo not drawn) [Example 6]
*A* 2

*Q* Output measured Fs: activity against seedling wheat blight for this item: N#CN=[N+]([O-])c1cc(Cl)cc2c1OCC=C2 [Example 26]
*A* 2

*Q* Using known records, supply Fs: activity against seedling wheat blight for Cc1oc2c([N+]([O-])=NC#N)cccc2c1C [Example 18]
*A* 2

*Q* Identify Fs: activity against seedling wheat blight associated with the compound CCc1cc2cccc([N+]([O-])=NC#N)c2o1 [Example 19]
*A* 1

*Q* Name the recorded Fs: activity against seedling wheat blight of the compound listed here: CCC1Cc2cccc([N+]([O-])=NC#N)c2O1 (stereo not drawn) [Example 8]
*A* 2

*Q* Please report the measured Fs: activity against seedling wheat blight for Cc1cc2cccc([N+]([O-])=NC#N)c2o1 [Example 16]
*A* 1

*Q* Please report Fs: activity against seedling wheat blight for the following compound: Cc1cc2c(F)ccc([N+]([O-])=NC#N)c2o1 [Example 22]
*A* 2

*Q* For the compound Cc1cc2cc([N+]([O-])=NC#N)ccc2o1 [Example 23] , give its reported Fs: activity against seedling wheat blight.
*A* 2

*Q* Specify measured Fs: activity against seedling wheat blight for CCCCc1cc2cccc([N+]([O-])=NC#N)c2o1 [Example 20] .
*A* 2

*Q* Please indicate Fs: activity against seedling wheat blight recorded for N#CN=[N+]([O-])c1cc(Cl)cc2c1OC(CO)C2 (stereo not drawn) [Example 11]
*A* 2

*Q* Indicate the recorded Fs: activity against seedling wheat blight value for this compound: CC1Oc2c(cccc2[N+]([O-])=NC#N)C1C (stereo not drawn) [Example 9]
*A* 2

*Q* // Input: N#CN=[N+]([O-])c1ccc2oc3c(c2c1)CCCC3 [Example 24] . Output its Fs: activity against seedling wheat blight only.
*A* 1

*Q* Retrieve Fs: activity against seedling wheat blight measured for N#CN=[N+]([O-])c1ccc2oc(=O)ccc2c1 [Example 1] and print it.
*A* 2

*Q* # return recorded Fs: activity against seedling wheat blight for input Cc1cc2c(c([N+]([O-])=NC#N)c1)OC(C)(C)C2 [Example 7]
*A* 1

*Q* Give Fs: activity against seedling wheat blight for the following compound: Cc1ccc([N+]([O-])=NC#N)c2c1CC(C)(C)O2 [Example 3]
*A* 1

*Q* Consider the compound N#CN=[N+]([O-])c1cc(Cl)cc2c1OC(CCl)C2 (stereo not drawn) [Example 10] and give its recorded Fs: activity against seedling wheat blight.
*A* 2

*Q* Check the records and state Fs: activity against seedling wheat blight for CC1(C)C=Cc2cc(F)cc([N+]([O-])=NC#N)c2O1 [Example 29]
*A* 2

*Q* Given the compound CC1(C)C=Cc2cccc([N+]([O-])=NC#N)c2O1 [Example 27] , write its reported Fs: activity against seedling wheat blight.
*A* 2

*Q* # return recorded Fs: activity against seedling wheat blight for entry N#CN=[N+]([O-])c1cccc2c3c(oc12)CCCC3 [Example 17]
*A* 2

*Q* Check the records and state Fs: activity against seedling wheat blight for CC1(C)Cc2cccc([N+]([O-])=NC#N)c2O1 [Example 2]
*A* 2

*Q* Identify measured Fs: activity against seedling wheat blight associated with CC1(C)CCc2cc(Cl)cc([N+]([O-])=NC#N)c2O1 [Example 15]
*A* 2

*Q* State its Fs: activity against seedling wheat blight for this compound: CC1(C)Cc2cc(Cl)cc([N+]([O-])=NC#N)c2O1 [Example 4]
*A* 2

*Q* Determine from records and report Fs: activity against seedling wheat blight for COC(=O)N=Nc1cccc2c1OC(C)(C)C2 [Example 31]
*A* 1
